Biological target: Integrin protein αvβ3 (Homo sapiens, UniProt P05106+P06756)
Construct: purchased Chemicon International, Inc., Temecula, Calif., USA
Sequence (P06756 31-889 limits assumed): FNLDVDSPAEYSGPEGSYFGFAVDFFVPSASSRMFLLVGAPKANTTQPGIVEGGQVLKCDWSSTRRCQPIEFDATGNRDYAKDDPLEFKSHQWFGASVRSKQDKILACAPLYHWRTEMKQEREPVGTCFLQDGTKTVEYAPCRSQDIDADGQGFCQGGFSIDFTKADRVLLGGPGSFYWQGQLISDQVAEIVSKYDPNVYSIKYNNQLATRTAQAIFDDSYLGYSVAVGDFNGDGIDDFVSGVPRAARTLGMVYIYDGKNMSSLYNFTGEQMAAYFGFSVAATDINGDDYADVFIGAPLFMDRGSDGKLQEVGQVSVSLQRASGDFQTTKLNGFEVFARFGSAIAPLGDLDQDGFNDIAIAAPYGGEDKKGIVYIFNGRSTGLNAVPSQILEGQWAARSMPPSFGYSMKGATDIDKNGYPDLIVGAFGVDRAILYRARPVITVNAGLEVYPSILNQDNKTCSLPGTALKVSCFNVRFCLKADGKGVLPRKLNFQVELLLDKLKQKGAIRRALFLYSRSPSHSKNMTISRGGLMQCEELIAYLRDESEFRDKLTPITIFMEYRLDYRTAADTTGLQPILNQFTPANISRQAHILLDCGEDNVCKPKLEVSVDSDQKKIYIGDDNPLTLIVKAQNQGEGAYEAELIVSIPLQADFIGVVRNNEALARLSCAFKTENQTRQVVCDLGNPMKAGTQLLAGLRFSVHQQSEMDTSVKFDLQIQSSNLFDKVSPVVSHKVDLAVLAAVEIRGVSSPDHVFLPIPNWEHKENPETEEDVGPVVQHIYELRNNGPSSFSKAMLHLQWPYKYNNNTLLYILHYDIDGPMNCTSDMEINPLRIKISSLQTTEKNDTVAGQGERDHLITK
Sequence (P06756 891-1048 limits assumed): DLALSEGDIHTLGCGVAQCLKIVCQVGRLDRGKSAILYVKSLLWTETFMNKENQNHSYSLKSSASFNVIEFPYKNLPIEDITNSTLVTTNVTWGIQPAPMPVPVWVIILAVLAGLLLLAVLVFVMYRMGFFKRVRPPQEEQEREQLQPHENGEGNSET
Sequence (P05106 27-788): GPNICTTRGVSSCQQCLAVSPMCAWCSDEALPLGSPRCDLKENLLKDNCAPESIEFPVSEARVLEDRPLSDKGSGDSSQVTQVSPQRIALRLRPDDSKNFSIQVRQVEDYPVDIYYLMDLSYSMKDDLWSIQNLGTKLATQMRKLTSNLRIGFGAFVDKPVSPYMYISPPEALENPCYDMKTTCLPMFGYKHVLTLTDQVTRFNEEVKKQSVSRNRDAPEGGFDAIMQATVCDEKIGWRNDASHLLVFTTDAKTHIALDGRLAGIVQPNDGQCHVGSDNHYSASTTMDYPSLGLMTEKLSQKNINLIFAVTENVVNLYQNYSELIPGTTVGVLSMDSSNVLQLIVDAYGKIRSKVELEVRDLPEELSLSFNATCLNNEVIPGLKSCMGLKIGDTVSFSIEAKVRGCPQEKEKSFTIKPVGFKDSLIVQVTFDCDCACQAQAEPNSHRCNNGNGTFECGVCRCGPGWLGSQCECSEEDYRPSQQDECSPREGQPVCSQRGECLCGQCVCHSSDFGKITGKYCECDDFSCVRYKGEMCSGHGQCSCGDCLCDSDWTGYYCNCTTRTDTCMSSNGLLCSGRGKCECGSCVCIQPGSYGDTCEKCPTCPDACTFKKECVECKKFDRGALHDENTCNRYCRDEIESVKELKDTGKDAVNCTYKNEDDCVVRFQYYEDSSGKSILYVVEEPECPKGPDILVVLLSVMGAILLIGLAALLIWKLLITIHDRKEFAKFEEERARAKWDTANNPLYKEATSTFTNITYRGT
Assay: Receptor/ligand challenge assay of biotinylated vitronectin binding to plate-coated integrin αvβ3 (chemiluminescence)
Conditions: competition with biotinylated vitronectin for coated αvβ3, 3 hours at room temperature, quadruplicate, 0.00316-1000 nM
pIC50: −log10 of the molar value. Where a name gives a salt, the structure may show the parent alone.
Assay endpoint: pIC50

{"columns": ["Compound", "Recorded number"],
 "data": [
  ["NCCCCOC(=O)NCCS(=O)(=O)N[C@@H](CNC(=O)c1ccc(OCCNC2=NCCCN2)cc1)C(=O)O [Example 8]", 8.50],
  ["NCCS(=O)(=O)N[C@@H](CNC(=O)c1ccc(OCCNC2=NCCCN2)cc1)C(=O)O [Hood et al., reference compound]", 7.85],
  ["CCCCOC(=O)NCCCCOC(=O)NCCS(=O)(=O)N[C@@H](CNC(=O)c1ccc(OCCNC2=NCCCN2)cc1)C(=O)O [Example 7]", 8.87],
  ["NCCCOC(=O)NCCS(=O)(=O)N[C@@H](CNC(=O)c1ccc(OCCNC2=NCCCN2)cc1)C(=O)O [Example 6]", 8.18],
  ["CC(C)(CN)COC(=O)NCCS(=O)(=O)N[C@@H](CNC(=O)c1ccc(OCCNC2=NCCCN2)cc1)C(=O)O [Example 2, Hydrochloride]", 8.53],
  ["CCCCOC(=O)NCCCOC(=O)NCCS(=O)(=O)N[C@@H](CNC(=O)c1ccc(OCCNC2=NCCCN2)cc1)C(=O)O [Example 5]", 8.99]
]}

(a) CCCCOC(=O)NCC(C)(C)COC(=O)NCCS(=O)(=O)N[C@@H](CNC(=O)c1ccc(OCCNC2=NCCCN2)cc1)C(=O)O [Example 1]
(b) CCCCOC(=O)NCCOC(=O)NCCS(=O)(=O)N[C@@H](CNC(=O)c1ccc(OCCNC2=NCCCN2)cc1)C(=O)O [Example 3]
(c) NCCOC(=O)NCCS(=O)(=O)N[C@@H](CNC(=O)c1ccc(OCCNC2=NCCCN2)cc1)C(=O)O [Example 4]
// query Hey, quick one: sort these by pIC50, low to high? Provide the ranking by listing each label in its place in the requested order.
// result c, b, a
